assay: Ratio of MIC for methicillin, quinolone-resistant Staphylococcus aureus to fraction unbound in human plasma; type: ADME
READOUT_LABEL: Ratio
One number for each entry.

COC[C@H](C)NC(=O)c1nc(N2CC[C@@H](NC(=O)c3[nH]c(C)c(Cl)c3Cl)[C@@H](OC)C2)sc1C(=O)O [AZD-5099]
2.3
COc1cc(OC)nc(-c2nc(N3CC[C@@H](NC(=O)c4[nH]c(C)c(Cl)c4Cl)[C@@H](OC)C3)sc2C(=O)O)n1
1.4
CO[C@H]1CN(c2ncc(C(=O)O)s2)CC[C@H]1NC(=O)c1[nH]c(C)c(Cl)c1Cl
7

Hi! Can you tell me Ratio for each of these compounds?
1. CNC(=O)c1nc(N2CC[C@@H](NC(=O)c3[nH]c(C)c(Cl)c3Cl)[C@@H](OC)C2)sc1C(=O)O
2. CO[C@H]1CN(c2nc(-c3ncnn3C)c(C(=O)O)s2)CC[C@H]1NC(=O)c1[nH]c(C)c(Cl)c1Cl
3. CO[C@H]1CN(c2nc(-c3cn(C)cn3)c(C(=O)O)s2)CC[C@H]1NC(=O)c1[nH]c(C)c(Cl)c1Cl

**Result**
1: 3.15; 2: 1.25; 3: 6.8
